Biological target: Cytochrome P450 2C9 (Homo sapiens)
Experiment: Cytochrome P450 Family 2 Subfamily C Member 9 (CYP2C9) small molecule antagonists: luciferase reporter qHTS assay (AID 1671198); note: nearly all actives have a fitted effect of over 50% in size; note: potency is the fitted concentration of half-maximal effect
Conditions: P450-Glo CYP2C9 enzyme assay, luciferin luminescence; series mostly up to 115 µM
Records with an inconclusive call do not appear. Active and inactive are the calls of the source. Calls come from the whole dose curve; as a rule, active = well fitted inhibition curve with a large enough effect in the repeat runs; inconclusive = weak or mixed curves; inactive = no such curve, though single readings can be large or run the other way.
Reported endpoint: Potency

# Compound, Value
rows = [
    ("Fc1cccc(Cl)c1CCl", "inactive"),
    ("CC1(C)CC/C(=C/c2ccc(Cl)cc2)C1(O)Cn1cncn1 (configuration not stated)", "1.12 µM (active)"),
    ("COCC(=O)N(c1c(C)cccc1C)[C@H](C)C(=O)OC", "inactive"),
    ("CCCN(CCC)CCc1c[nH]c2ccccc12", "inactive"),
    ("CCc1ccccc1C", "inactive"),
    ("ClC(Cl)=C(Cl)Cl", "inactive"),
    ("BrC(Br)C(Br)(Br)Br", "31.9 µM (active)"),
    ("C[C@]12Cc3nonc3C[C@@H]1CC[C@@H]1[C@@H]2CC[C@@]2(C)[C@H]1CC[C@]2(C)O", "24.5 µM (active)"),
    ("CN(C)S(=O)(=O)N(SC(F)(Cl)Cl)c1ccccc1", "3.56 µM (active)"),
    ("CC(C)(C)c1ccc(CSc2cnn(C(C)(C)C)c(=O)c2Cl)cc1", "6.33 µM (active)"),
    ("c1ccc2c(c1)[nH]c1cnccc12", "31.8 µM (active)"),
    ("Oc1cc(Cl)c(Cl)c(Cl)c1", "inactive"),
    ("C[C@@H]1CC[C@@]2(OC1)O[C@H]1[C@@H](O)[C@H]3[C@@H]4CC[C@H]5C[C@@H](O[C@@H]6O[C@H](CO)[C@H](O[C@@H]7O[C@H](CO)[C@@H](O)[C@H](O[C@@H]8OC[C@@H](O)[C@H](O)[C@H]8O)[C@H]7O[C@@H]7O[C@H](CO)[C@@H](O)[C@H](O[C@@H]8O[C@H](CO)[C@@H](O)[C@H](O)[C@H]8O)[C@H]7O)[C@H](O)[C@H]6O)[C@H](O)C[C@]5(C)[C@H]4CC[C@]3(C)[C@H]1[C@@H]2C", "inactive"),
    ("C[C@]12CC[C@H](O)C[C@H]1CC[C@@H]1[C@@H]2C[C@@H](O)[C@]2(C)[C@@H](C3=CC(=O)OC3)CC[C@]12O", "inactive"),
    ("N#Cc1c(-c2ccc(Cl)cc2)[nH]c(C(F)(F)F)c1Br", "11.2 µM (active)"),
    ("CC(C)Oc1cccc(NC(=O)c2ccccc2C(F)(F)F)c1", "13 µM (active)"),
    ("O=C(O)C1C2CCC(O2)C1C(=O)O (configuration not stated)", "inactive"),
    ("CCOP(=S)(OCC)OC(Cl)C(Cl)(Cl)Cl (configuration not stated)", "3.99 µM (active)"),
    ("N#CCc1ccc(Cl)cc1", "inactive"),
    ("O=C(CBr)c1ccc(O)cc1", "inactive"),
    ("c1cc[c]([Sb]([c]2ccccc2)[c]2ccccc2)cc1", "17.8 µM (active)"),
    ("C[As+](C)(C)CC(=O)[O-]", "inactive"),
]

Sourced from PubChem BioAssay (Tox21)
